- subject-of-test: horse IgG
- protocol-description: ELISA, coated antigen, E. coli supernatant (no SDA 0.255, 0.261)
Field: absorbance at 450 nm. Provide a value for each of the binders that follow.
One number for each entry, in A450.

SVG19 (VHH, not shown: large carriers) VHH: QVQLQQSGGGLVQPGGSLRLSCAASGFTFSSYAMSWVRQAPGKGLEWVSAINSGGGSTSYADSVKGRFTISRDNAKNTLYLQMNSLKPEDTAVYYCAKDFDPWGVGTGGYDYWGQGTQVTVSS: 0.681

Shift focus to the following entry.
**Query** # query: absorbance at 450 nm of entry SVG23 (VHH, not shown: large carriers) VHH: QVQLQESGGGLVQAGGSLRLSCAASGRAFGSYTMNWFRQAPGKERDFVAGIMSSGMNTWYADSVKGRFTISRDNAKNTVYLQMNSLKPEDTAVYYCASRPRSTMTSGRYLYDYWGQGTQVTVSS
**Result** 0.26
